// provenance: ChEMBL document CHEMBL1201862

Item-by-item account of GI50
Tested on: COLO 205
Test Name: NCI tumour cell line growth inhibition, 48 h
The source made the active and inactive calls. Rule as the data show it: active = GI50 up to about 1.1 µM and inactive = higher.
Assay Readout: GI50

Compound | Measured On | Assay Readout | Measured Result
O=C1CCC[C@@H]2NC[C@@H](c3ccc4c(c3)OCO4)[C@H]12 | COLO 205 | GI50 | > 25 µM (inactive)
CN(C)/C(F)=P\C(F)(F)F (stereo not given) | COLO 205 | GI50 | > 100 µM (inactive)
S=C1CNC(=S)CN1 | COLO 205 | GI50 | > 100 µM (inactive)
C=C1C(=O)OC2/C=C(/C)C(OC(C)=O)C/C=C(\C)C(OC(=O)C3(C)OC3C)C(O)C12 (stereo not given) | COLO 205 | GI50 | 55.7 µM (inactive)
CCc1c(OC(C)=O)c2c(NC3OC(COC(C)=O)C(OC(C)=O)C(OC(C)=O)C3OC(C)=O)nc(SC)nc2oc1=O (stereo not given) | COLO 205 | GI50 | > 100 µM (inactive)
COc1cc(/C=C2\N=C(c3ccccc3)N(c3ccc(C(=O)c4ccccc4)cc3N3C(=O)/C(=C/c4ccc(O)c(OC)c4)N=C3c3ccccc3)C2=O)ccc1O | COLO 205 | GI50 | 17.9 µM (inactive)
Cc1cc(S(=O)(=O)Nc2nc(Nc3ccccc3)n[nH]2)c(SCC(=O)O)cc1Cl | COLO 205 | GI50 | > 100 µM (inactive)
CCOP(=O)(CN1CCNCCNCC1)OCC | COLO 205 | GI50 | > 100 µM (inactive)
CSc1nc2c(N)ncnc2n1C | COLO 205 | GI50 | > 100 µM (inactive)
CC12ON=C(c3ccccc3)N1C=CN1C(c3ccccc3)=NOC12 (stereo not given) | COLO 205 | GI50 | 37.2 µM (inactive)

* * *

Tested on: HCC 2998
Test Name: NCI tumour cell line growth inhibition, 48 h
Active and inactive are the calls of the source. Cut-off read from the data, not from the text of the source: active = GI50 up to about 1.1 µM and inactive = higher.
Outcome codes: label 1 (active), label 0 (inactive)

Compound | Cat
Cc1ccc2c(c1)C(=O)c1nc(C)ccc1C2=O | label 0
COC(=O)c1cc(C(=CCC[C@H]2CC[C@@]3(C)C(CCC4C3CC[C@@]3(C)C4CC[C@@H]3C(C)CCCC(C)C)C2)c2cc(Cl)c(OC(=O)c3ccccc3)c(C(=O)OC)c2)cc(Cl)c1OC(=O)c1ccccc1 (some centres undefined) | label 0
C[C@@H]1C(=O)CC2C(C)(C)CCC[C@]2(C)[C@@]12CC[C@]1(C=COC1)O2 (some centres undefined) | label 0
COc1ccccc1C1C2=C(COC2=O)OC(C)(C)Oc2cc3c(cc21)OCO3 (centres undefined) | label 0
CC(=O)OCC1OC(Sc2ccccn2)C=CC1OC(C)=O (centres undefined) | label 0
COc1ccc(-c2ncn(C[Si](C)(C)C)c2-c2ccc(OC)cc2)cc1 | label 0
C=CCN1C(=O)/C(=C/c2ccc(OC)cc2)NC1=S | label 0
COC1=C(OC)C(=O)C(Cc2c(C)nc3sc(C)cn23)=C(C)C1=O | label 0
CCCCC1Cc2ccccc2-c2nc3ccccc3n21 (centres undefined) | label 0
CN(Cc1cnc2nc(N)nc(N)c2n1)c1ccc(C(=O)N[C@@H](CCC(=O)O)C(=O)O)cc1 [METHOTREXATE] | label 1
CS(=O)(=O)c1ccc(-c2cc(-c3ccc(S(C)(=O)=O)cc3)[n+](-c3cc(-c4ccccc4)c([O-])c(-c4ccccc4)c3)c(-c3ccc(S(C)(=O)=O)cc3)c2)cc1 | label 0
Cc1cc(C)c(N[S+]([O-])c2ccc(Cl)cc2)c(C)c1 (centres undefined) | label 0
Cc1cc2c(cc1C)[n+]([O-])c(N1CCN(c3ccc([N+](=O)[O-])cc3)CC1)c(C#N)[n+]2[O-] | label 0
c1cc(C2N3CCCN2CC3)ccn1 (centres undefined) | label 0
CCOC(=O)c1cccc(NC(=O)CCl)c1 | label 0
COc1cccc(/C=N/[N+](C)(C)C)c1O | label 0
CO[C@H]1[C@@H](O)[C@H](O[C@@H]2C[C@H]3CC[C@@H]4[C@H](CC[C@]5(C)[C@@H](C6=CC(=O)OC6)CC[C@]45O)[C@@]3(C)[C@H](OC(C)=O)C2)O[C@@H](C)[C@H]1O | label 0
Cc1cc(C)c2c(=N)c3ccccc3n(CCCCCCO)c2n1 | label 0
c1cc(-c2cscc2-c2ccsc2)cs1 | label 0
